As shown below, each of these molecules has a reported viability value.
Assay: reversal of MRP1-mediated doxorubicin resistance, pilot screen, H69AR cells, doxorubicin co-treatment (AID 601)
Details: H69AR cells + 2 uM doxorubicin, CellTiter-Glo, 72 h; measured here: viability with 2 uM doxorubicin; at 10 µM; stronger effect = lower value
Please reply with the bare figure in % and do not write the unit itself.

c1coc(CN(Cc2cccs2)Cc2nnnn2C2CCCCC2)c1: 80.4
Cc1cc(N2C(=O)CC(N3CCN(c4ccc(C(=O)c5cccs5)cc4)CC3)C2=O)no1 (stereo not given): 92.6
COc1ccc(NC(=O)CSc2c(C)nn(-c3nnc(C)c(=O)[nH]3)c2C)cc1: 95.5

// viability value for CC(C)CN(C(=O)c1ccc(=O)n(C)n1)c1nc2ccccc2s1 : 85.2

// viability value for C/C(Cl)=C\Cn1c(NCCc2ccccc2)nc2c1c(=O)n(C)c(=O)n2C : 66.6

// viability value for CCOC(=O)C1=C(CC)Nc2ccccc2N=C1NC(=O)Nc1ccccc1OC : 74.5

// viability value for Cc1cccc(-n2c(SCc3cc(=O)n4ccsc4n3)nc3ccccc32)c1 : 88.1

// viability value for CCCC1c2ccc(C)n2CCN1C(=O)Nc1ccccc1Cl (stereo not given) : 86.6

// viability value for Cc1cccc(N(CC(=O)Nc2ccc(CC#N)cc2)S(C)(=O)=O)c1 : 86.2

// viability value for COc1ccccc1N(CC(=O)NC1CCCC1)C(=O)CCC(=O)Nc1cc(C)on1 : 87.1

* * *

As shown below, each of these compounds has a reported inhibition value.
Assay: growth suppression of yeast trafficking mutant, preliminary HTS, modulators of trafficking downstream of Golgi apparatus project, 1536-format plate, OD 615 nm (AID 637)
Conditions: yeast transport mutant growth, absorbance 615 nm, 18 h; stronger effect = higher value
Please reply with the bare figure in % and do not write the unit itself.

NS(=O)(=O)c1ccc(NC(=O)CSc2nnc(Cc3cccs3)n2-c2ccccc2)cc1: 2.18
Cc1cc(C)nc(SC2=CS(=O)(=O)c3ccccc32)n1: -1.27
Cc1ccc(-c2nnnn2CS(=O)(=O)c2ccccc2)cc1: -2.22
N#Cc1c(NCc2ccccc2)ccnc1NCc1cccnc1: -0.55

// inhibition value for C[C@@H]1C[C@H]2[C@@H]3C[C@H](F)C4=CC(=O)C=C[C@]4(C)[C@@]3(F)[C@@H](O)C[C@]2(C)[C@@]1(O)C(=O)COC(=O)C(C)(C)C : -11.3

* * *

Experiment: HUVEC growth inhibition – cell-based, human, primary screen (AID 575);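 note: 100% = median of untreated cell wells with 0.1% DMSO on each plate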
Conditions: HUVEC proliferation, CellTiter-Glo luminescence, 72 h; at 10 µM; stronger effect = lower value
As shown below, each of these compounds has a reported viability value.
Please reply with the bare figure in % and do not write the unit itself.

CCN(C(=O)c1c(OC)cccc1OC)c1nnc(-c2cccnc2)s1: 87.7
O=C(CN(c1ccccc1)S(=O)(=O)c1ccccc1)N1CCN(Cc2ccc3c(c2)OCO3)CC1: 92.7
CCCc1cc(=O)n2[nH]cnc2n1: 110
O=C(c1ccc(Cl)cc1)N1CCCOC1: 113
CNCCCC12CCC(c3ccccc31)c1ccccc12: 77.4

// viability value for O=C(CSc1nc(N2CCCCC2)nc(N2CCCCC2)n1)Nc1nccs1 : 85.4

* * *

Test: reversal of MRP1-mediated doxorubicin resistance, pilot screen, H69AR cells, doxorubicin co-treatment (AID 601)
Details: H69AR cells, CellTiter-Glo, 72 h; compound alone cytotoxicity; at 10 µM
Quick rule for you: viability under 90% gets 1, anything else gets 0.

CCOc1cccc(-n2nnnc2-c2ccc(OC)cc2)c1: 1
CC1CCCc2sc3nc(NCc4ccco4)n4ncnc4c3c21 (stereo not drawn): 1
COC(=O)C1=C(CSCc2ccco2)NC(=O)NC1c1cc(C)ccc1C (stereo not drawn): 1
CC(=O)Oc1cccc2c1C(=O)c1c(OC(C)=O)cc(C(=O)O)cc1C2=O: 1
Cc1cc(NCCN2CCOCC2)n2nc(C)c(-c3ccccc3)c2n1: 0
COc1ccc(C2C=C(c3ccccc3)Nc3ncnn32)cc1 (stereo not drawn): 0

Ask | Consider the compound COc1ccc2cc(C(c3nnnn3C(C)(C)C)N3CCc4ccccc4C3)c(=O)[nH]c2c1 (stereo not drawn) . Is its viability strictly less than 90%?
Reply | 1

Ask | Consider the compound C=CCC1(O)C(=O)Nc2ccccc21 (stereo not drawn) . Is its viability strictly less than 90%?
Reply | 0

Ask | Consider the compound C1CCC(C(CC2CCCCN2)C2CCCCC2)CC1 (stereo not drawn) . Is its viability strictly less than 90%?
Reply | 1

Ask | Consider the compound Cn1c(C(=O)NCc2cccnc2)cc2sccc21 . Is its viability strictly less than 90%?
Reply | 0

Ask | Consider the compound Cc1cc(C(=O)Nc2nnc(C(F)(F)F)s2)no1 . Is its viability strictly less than 90%?
Reply | 0

Ask | Consider the compound Cc1cc(=O)c2n(Cc3ccccc3Cl)nc[n+]2[nH]1 . Is its viability strictly less than 90%?
Reply | 0

Ask | Consider the compound Cc1nc2cc(NC(=O)N3c4ccccc4CC3C)ccc2o1 (stereo not drawn) . Is its viability strictly less than 90%?
Reply | 1

* * *

Assay: 384-well plate pilot, post-Golgi transport modulator project, inhibition of yeast transport mutant growth (AID 636)
Conditions: absorbance 615 nm, about 18 h, stronger effect = higher value
readout name: inhibition (%)
Please reply with the bare figure in % and do not write the unit itself.

Some solved entries appear below for comparison.
CCCNC(=O)c1cc(S(=O)(=O)N2CCc3ccccc32)ccc1F: -6.13
CC(OC(=O)c1cccc(NS(C)(=O)=O)c1)C(=O)Nc1ccc(N2CCOCC2)cc1 (stereo unspecified): 0.78
Cn1c(Cl)cnc1C1CC(=O)c2cc(Cl)ccc2O1 (stereo unspecified): -4.46
Cc1cc(C)n(-c2ccc3cccc(NS(C)(=O)=O)c3n2)n1: -6
COCCCNC(=O)CCCn1c(=O)c2ccccc2n(CC(=O)Nc2c(C)cccc2C)c1=O: -1.69
CCOc1nc(-c2ccncc2)nc2ccccc12: -7.4
COc1cccc(CC(=O)Nn2c(C)nc3ccccc3c2=O)c1: -3.07
Nc1ncnc2nc(Sc3ccc(Cl)cc3)[nH]c12: 0.52
CCOC(=O)N1CCN(c2cc3[nH]c(=S)[nH]c3cc2F)CC1: -7.2
NS(=O)(=O)c1cc2c(cc1Cl)NC(CSCc1ccccc1)=NS2(=O)=O: -4.29

Lab note: next molecule to report on.
// inhibition value for NS(=O)(=O)c1ccc(CCNC(=O)CCC2COc3ccccc3O2)cc1 (stereo unspecified) : -5.62

* * *

Assay: HUVEC growth inhibition – cell-based, human, primary screen (AID 575);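 note: 100% = median of untreated cell wells with 0.1% DMSO on each plate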
Conditions: HUVEC proliferation, CellTiter-Glo luminescence, 72 h; at 10 µM; stronger effect = lower value
As shown below, each of these molecules has a reported viability value.
Please reply with the bare figure in % and do not write the unit itself.

Some solved entries appear below for comparison.
O=C(Nc1nccs1)c1ccc(Cl)c(S(=O)(=O)N2CCCCC2)c1: 84.3
CCCS(=O)(=O)N1CCN(C(=O)CCC2CCCC2)CC1: 101
COC(=O)c1cc(Oc2ccc(C(=O)OC)cc2N)cc(C(=O)OC)c1: 99.1
CCOC(=O)N1CCC(NC(=O)Cn2cc3c(n2)CCC(C)C3)CC1 (stereo unspecified): 93
Cc1nn(C(=O)c2ccccc2)c2c1C(=O)CC(C)(C)C2: 95.8

// viability value for COc1ccc(S(=O)(=O)NC(CC(=O)NCc2ccco2)c2ccco2)cc1 (stereo unspecified) : 99.7

// viability value for OCCNC1=NCCN1 : 99.5

// viability value for CC(=O)c1c(C)[nH]c(C(=O)Nc2c(C)n(C)n(-c3ccccc3)c2=O)c1C : 101

* * *

Target: Receptor tyrosine-protein kinase erbB-2 (Homo sapiens) (UniProt P04626)
Sequence (P04626 whole entry, looked up): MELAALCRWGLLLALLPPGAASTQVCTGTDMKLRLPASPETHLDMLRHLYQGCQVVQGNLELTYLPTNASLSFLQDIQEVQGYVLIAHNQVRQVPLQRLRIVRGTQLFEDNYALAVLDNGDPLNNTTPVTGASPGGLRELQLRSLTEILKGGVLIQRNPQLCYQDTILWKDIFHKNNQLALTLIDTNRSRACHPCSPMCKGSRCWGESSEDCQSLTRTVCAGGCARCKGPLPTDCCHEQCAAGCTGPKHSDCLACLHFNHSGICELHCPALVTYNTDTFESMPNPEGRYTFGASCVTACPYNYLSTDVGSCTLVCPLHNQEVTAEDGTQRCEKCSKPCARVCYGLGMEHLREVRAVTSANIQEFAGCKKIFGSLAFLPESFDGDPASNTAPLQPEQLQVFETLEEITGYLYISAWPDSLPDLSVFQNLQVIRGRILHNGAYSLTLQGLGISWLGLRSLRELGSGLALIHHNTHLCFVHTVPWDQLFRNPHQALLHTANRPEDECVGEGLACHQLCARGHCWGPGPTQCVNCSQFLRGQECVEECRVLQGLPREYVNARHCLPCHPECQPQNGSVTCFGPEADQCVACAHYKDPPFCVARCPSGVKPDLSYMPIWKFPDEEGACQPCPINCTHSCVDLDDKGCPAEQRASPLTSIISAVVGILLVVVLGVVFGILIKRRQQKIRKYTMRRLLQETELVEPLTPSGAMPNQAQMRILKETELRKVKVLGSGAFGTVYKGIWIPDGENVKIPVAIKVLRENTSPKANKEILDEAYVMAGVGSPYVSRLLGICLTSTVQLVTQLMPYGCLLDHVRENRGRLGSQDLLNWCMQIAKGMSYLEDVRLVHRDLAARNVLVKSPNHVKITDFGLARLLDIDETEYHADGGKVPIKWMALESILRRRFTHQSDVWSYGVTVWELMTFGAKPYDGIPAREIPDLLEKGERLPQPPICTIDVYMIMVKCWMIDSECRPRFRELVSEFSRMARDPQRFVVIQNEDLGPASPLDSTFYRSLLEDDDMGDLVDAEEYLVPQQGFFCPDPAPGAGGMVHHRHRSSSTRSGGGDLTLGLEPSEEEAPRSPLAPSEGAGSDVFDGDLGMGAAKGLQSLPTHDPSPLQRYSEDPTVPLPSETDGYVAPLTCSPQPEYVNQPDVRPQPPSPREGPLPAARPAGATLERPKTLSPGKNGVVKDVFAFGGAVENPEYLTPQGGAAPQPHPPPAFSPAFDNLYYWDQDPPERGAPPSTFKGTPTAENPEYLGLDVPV
Assay: reducers of endogenous Her2 protein level, primary screen, SKBR3 breast tumor cells, AlphaScreen, ATP viability (AID 461);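 note: lower value means less Her2 protein in the cells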
Settings: 18-24 h, at 10 µM
Calls of active or inactive are those of the source.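 The calls were made as follows: active = Her2 level under about 52% in both replicate screens, with viability over 70% of control (limit read from the data); inconclusive = Her2 under the limit in one screen only, or viability under 70%; inactive = Her2 level above the set limit.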
Hi! Could you answer with just one of these? 1 (active), -1 (inactive)

Worked examples, 3 compounds total:
COc1ccc(CNC(=O)Cn2nc(C(F)(F)F)c3c2CCC3)cc1: -1
COc1ccccc1NC(=O)CSc1nnc(-c2ccncc2)o1: -1
Nc1nc(N2CCN(C/C=C/c3ccccc3)CC2)nc2ccccc12: -1

Ask | I'd appreciate the recorded outcome for COc1ccc(/C=N/n2cc(-c3ccc(OC)cc3)nc2N)cc1 from this test.
Reply | -1

Ask | I'd appreciate the recorded outcome for Nc1nc2n(n1)C(c1cccc(Cl)c1)CC(c1ccc(F)cc1)N2 (centres undefined) from this test.
Reply | -1

Ask | I'd appreciate the recorded outcome for Cc1ccc2[nH]c(=O)c(C(c3nnnn3CCc3ccccc3)N3CCOCC3)cc2c1 (centres undefined) from this test.
Reply | -1

* * *

Assay: growth suppression of yeast trafficking mutant, preliminary HTS, modulators of trafficking downstream of Golgi apparatus project, 1536-format plate, OD 615 nm (AID 637)
Conditions: yeast transport mutant growth, absorbance 615 nm, 18 h; stronger effect = higher value
readout name: inhibition (%)
Please reply with the bare figure in % and do not write the unit itself.

Some solved entries appear below for comparison.
c1ccc(OCCOc2ncnc3sccc23)cc1: -1.75
COc1ccccc1NC(=O)N(Cc1ccco1)Cc1cc2c(C)ccc(C)c2[nH]c1=O: -2.55
O=C(Nc1ccccn1)N1CCOCC1: -5.45
COC(=O)Nc1sccc1C(=O)Nc1sccc1C(=O)OC: -2.36
COC1CCCCC1NS(=O)(=O)c1ccccc1 (stereo unspecified): 3.17

// inhibition value for Cc1[nH]nc2c1C1(CCN(C(=O)c3ccccc3)CC1)C(C#N)=C(N)O2 : 6.83
